molecular target: SARS-CoV-2 spike protein on pseudotyped lentivirus (Wuhan Reference Pseudovirus) (SARS-CoV-2, UniProt P0DTC2 14-1273); experiment: cell-based or functional assay

Binder	Scale Unit	Pseudovirus neutralization IC50
PP1156 MPB-scTRP-PAPA-R2c-F6-H6 (VHH, Form: Trimer) VHH: QVQLVESGGGLVQPGGSLRLSCAASGRILAANIVHWYRQAPGKEREGVAGITTGGSNYYSDSVKGRFTISRDNAKNTVYLQMNSLKPEDTAVYYCNALGLGSASGSYESWGQGTQVTVSS	nM	36.8
PP1131 MBP-4B0F-PAPA-R2b-D5-H6 (VHH, Form: Heptamer) VHH: QVQLVESGGGLVQPGGSLRLSCAASGYADEINMVHWYRQAPGKGREFVAAIASGGSTFYADSVKGRFTISRDNAKNTVYLQMNSLKPEDTAVYYCAAIPRPSLSYAHDYAYWGQGTQVTVSS	nM	0.93
PP1150 MBP-5HVZ-PAPA-R5b-G1-H6 (VHH, Form: Dimer) VHH: QVQLVESGGGLVQPGGSLRLSCAASGSIGQIVLVHWFRQAPGKQRELVAGITSPSSTYYADSVKGRFTISRDNAKNTVYLQMNSLKPEDTAVYYCNTELEGKTQGFTGKTVWYDYWGQGTQVTVSS	nM	2.72
